Recorded measurements of MIC, EH, one per entry
- Test system: Enterococcus hirae ATCC 10541
- EXPERIMENT DESCRIPTION: Antimicrobial activity, agar dilution method (MIC), EH
- CONDITION: pH 7

MOLECULE | MIC, EH / mg/L
CC(=O)O[C@@H]1C=CC(OC2/C=C(\C)CCC3(CC(=O)NC(C)c4nc(cs4)/C=C\C=C\C2=O)[S+]([O-])SC(=O)C3(C)O)O[C@H]1C (stereo partly drawn) [Compound 57] | 0.13
COCCOCCOCCOCCOCCOCC(=O)OC1/C=C(\C)CCC2(CC(=O)NC(C)c3nc(cs3)/C=C\C=C\C1=O)[S+]([O-])SC(=O)C2(C)O (stereo not drawn) [Compound 5] | 0.20
COCCOCC(=O)OCCOCCOCC(=O)OC1/C=C(\C)CCC2(CC(=O)NC(C)c3nc(cs3)/C=C\C=C\C1=O)[S+]([O-])SC(=O)C2(C)O (stereo not drawn) [Compound 31] | 0.11
C/C1=C\C(OC(=O)COCCOCCOCCOCCO)C(=O)/C=C/C=C\c2csc(n2)C(C)N2C(=O)CC(C(C)(O)C(=O)SCc3oc(=O)oc3C)(CC1)[S+]2[O-] (stereo not drawn) [Compound 38] | 1.8
C/C1=C\C(OC(=O)COCCOCCO)C(=O)/C=C/C=C\c2csc(n2)C(C)NC(=O)CC2(CC1)[S+]([O-])SC(=O)C2(C)O (stereo not drawn) [Compound 8] | 0.13
C/C1=C\C(OC(=O)COCCCCO)C(=O)/C=C/C=C\c2csc(n2)C(C)NC(=O)CC2(CC1)[S+]([O-])SC(=O)C2(C)O (stereo not drawn) [Compound 35] | 0.098

###

- Test system: Enterococcus hirae ATCC 10541
- EXPERIMENT DESCRIPTION: Antimicrobial activity, agar dilution method (MIC), EH
- CONDITION: pH 7
Criterion: MIC, EH strictly under 0.08 µg/mL. Met: rule met. Not met: rule not met.

COMPOUND | CATEGORY
CC(=O)OCC1OC(OC2C=C(C)CCC3(CC(=O)NC(C)c4nc(cs4)C=CC=CC2=O)[S+]([O-])SC(=O)C3(C)O)C=CC1OC(C)=O (stereo not drawn) [Compound 50] | rule met
C/C1=C\C(OC(=O)COCCOCCO)C(=O)/C=C/C=C\c2csc(n2)C(C)N2C(=O)CC(C(C)(O)C(=O)SCc3oc(=O)oc3C)(CC1)[S+]2[O-] (stereo not drawn) [Compound 17] | rule not met
C/C1=C\C(OC(=O)COCCCO)C(=O)/C=C/C=C\c2csc(n2)C(C)NC(=O)CC2(CC1)[S+]([O-])SC(=O)C2(C)O (stereo not drawn) [Compound 33] | rule met
CC(=O)OC[C@H]1OC(OC2/C=C(\C)CCC3(CC(=O)NC(C)c4nc(cs4)/C=C\C=C\C2=O)[S+]([O-])SC(=O)C3(C)O)C[C@@H](OC(C)=O)[C@@H]1OC(C)=O (stereo partly drawn) [Compound 53] | rule not met
C/C1=C\C(OC(=O)COCCOCCOCCOCCO)C(=O)/C=C/C=C\c2csc(n2)C(C)NC(=O)CC2(CC1)[S+]([O-])SC(=O)C2(C)O (stereo not drawn) [Compound 27] | rule met

###

- Tested on: Enterococcus hirae ATCC 10541
- CONDITION: pH 7
Quick list: MIC, EH per entry.

COMPOUND | TESTED TARGET | MIC, EH
COCCOCCOCCOCCOCC(=O)OC1/C=C(\C)CCC2(C(C)(O)C(=O)SCc3oc(=O)oc3C)CC(=O)N(C(C)c3nc(cs3)/C=C\C=C\C1=O)[S+]2[O-] (stereo not shown) [Compound 14] | Enterococcus hirae ATCC 10541 | 2.6 µg/mL
COCCOCCOCC(=O)OCCOCCOCCOCCOCC(=O)OC1/C=C(\C)CCC2(C(C)(O)C(=O)SCc3oc(=O)oc3C)CC(=O)N(C(C)c3nc(cs3)/C=C\C=C\C1=O)[S+]2[O-] (stereo not shown) [Compound 39] | Enterococcus hirae ATCC 10541 | 1.3 µg/mL
COCCOCCOCC(=O)OC1/C=C(\C)CCC2(CC(=O)NC(C)c3nc(cs3)/C=C\C=C\C1=O)[S+]([O-])SC(=O)C2(C)O (stereo not shown) [Compound 2] | Enterococcus hirae ATCC 10541 | 0.23 µg/mL
COCCOCCOCC(=O)OC1/C=C(\C)CCC2(C(C)(O)C(=O)SCc3oc(=O)oc3C)CC(=O)N(C(C)c3nc(cs3)/C=C\C=C\C1=O)[S+]2[O-] (stereo not shown) [Compound 12] | Enterococcus hirae ATCC 10541 | 42 µg/mL
